Every entry's value here was drawn from patent US20240116985A1.

Molecular target: beta-catenin/TCF4 engagement (Homo sapiens)
Construct: expressed in transfected cells; host or cells: HEK293
Sequence (P35222 1-781): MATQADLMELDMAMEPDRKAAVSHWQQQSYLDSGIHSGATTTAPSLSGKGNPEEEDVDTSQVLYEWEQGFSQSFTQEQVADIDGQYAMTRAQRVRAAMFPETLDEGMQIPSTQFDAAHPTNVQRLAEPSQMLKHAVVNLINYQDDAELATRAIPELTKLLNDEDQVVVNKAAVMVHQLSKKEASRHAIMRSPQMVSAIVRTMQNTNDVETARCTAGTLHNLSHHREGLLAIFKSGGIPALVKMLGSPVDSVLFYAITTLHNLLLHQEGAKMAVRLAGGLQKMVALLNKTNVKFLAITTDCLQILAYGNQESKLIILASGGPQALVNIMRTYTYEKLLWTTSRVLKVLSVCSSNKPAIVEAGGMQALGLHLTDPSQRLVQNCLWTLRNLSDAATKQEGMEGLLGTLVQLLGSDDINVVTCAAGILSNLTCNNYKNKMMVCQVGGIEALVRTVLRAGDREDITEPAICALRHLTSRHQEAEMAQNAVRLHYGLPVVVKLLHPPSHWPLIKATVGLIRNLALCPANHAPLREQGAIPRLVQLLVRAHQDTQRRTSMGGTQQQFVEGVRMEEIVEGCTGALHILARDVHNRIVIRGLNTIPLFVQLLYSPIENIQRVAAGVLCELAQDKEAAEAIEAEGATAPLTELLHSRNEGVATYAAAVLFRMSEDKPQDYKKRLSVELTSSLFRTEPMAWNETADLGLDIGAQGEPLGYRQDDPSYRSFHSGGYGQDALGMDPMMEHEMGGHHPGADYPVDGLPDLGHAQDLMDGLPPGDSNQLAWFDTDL
Assay: Nano-BRET target engagement assay (B-cat-Halo & TCF4-Luc in HEK293 cells)
Type: cell-based
Settings: absolute IC50; read-out: NanoBRET Abs IC50
readout kind: IC50 (µM)
State the answer as a number, implicitly in µM.

Q: // map CC(=O)N1CCC[C@]12CC=CCCCC1(CCCC=CCCCOC(=O)N3CC[C@@](C(=O)N[C@@H](Cc4ccccc4C(F)(F)F)C(=O)N[C@@H](Cc4csc5ccccc45)C(=O)N[C@@H](CCC(N)=O)C(=O)N[C@@H](CC(C)C)C(=O)N[C@@H](Cc4c[nH]c5ccccc45)C(N)=O)(C3)NC(=O)[C@H](CC(C)C)NC(=O)[C@H](Cc3ccccc3)NC(=O)[C@H](C)NC(=O)[C@H](C)NC(=O)[C@H](Cc3cccc(C(=O)O)c3)NC(=O)[C@H](CC(=O)O)NC1=O)NC(=O)[C@H](CC(C)(C)C)NC(=O)[C@H](CC(=O)O)NC2=O (some centres unmarked) to recorded IC50 (system: beta-catenin/TCF4 engagement (Homo sapiens))
A: 2.2

---

# IC50 values compiled below
Molecular target: beta-catenin/TCF4 engagement (Homo sapiens, UniProt P35222)
Construct: expressed in transfected cells; host or cells: HEK293
Test: Nano-BRET target engagement assay (B-cat-Halo & TCF4-Luc in HEK293 cells)
Format: cell-based
Settings: Abs IC50; read-out: NanoBRET Abs IC50

A selection of reference data follows.
CC(=O)N1CCC[C@]12CC=CCCCC1(CCCC=CCCCCCC[C@@](C)(C(=O)N[C@@H](Cc3ccccc3)C(=O)N[C@@H](Cc3csc4ccccc34)C(=O)N[C@@H](CCC(N)=O)C(N)=O)NC(=O)[C@H](CC(N)=O)NC(=O)[C@H](Cc3ccccc3)NC(=O)[C@H](C)NC(=O)[C@H](C)NC(=O)[C@H](CN(CC(=O)O)CC(F)(F)F)NC(=O)[C@H](CC(=O)O)NC1=O)NC(=O)[C@H](CC(C)(C)C)NC(=O)[C@H](CC(=O)O)NC2=O (stereo partly shown) [I-703] : 11.9 µM
CC(=O)N1CCC[C@]12CC=CCCCC1(CCCC=CCCCCCC[C@@](C)(C(=O)N[C@@H](Cc3ccccc3)C(=O)N[C@@H](Cc3csc4ccccc34)C(=O)N[C@@H](CCC(N)=O)C(N)=O)NC(=O)[C@H](CCC(N)=O)NC(=O)[C@H](Cc3ccccc3)NC(=O)[C@H](C)NC(=O)[C@H](C)NC(=O)[C@H](CCC(=O)O)NC(=O)[C@H](CC(=O)O)NC1=O)NC(=O)[C@H](CC(C)C)NC(=O)[C@H](CC(=O)O)NC2=O (stereo partly shown) [I-505] : 4.9 µM
CC(=O)N1CCC[C@]12CC=CCCCC1(CCCC=CCCCCCC[C@@](C)(C(=O)N[C@@H](Cc3ccccc3)C(=O)N[C@@H](Cc3csc4ccccc34)C(=O)N[C@@H](CC(N)=O)C(N)=O)NC(=O)[C@H](CC(N)=O)NC(=O)[C@H](Cc3ccccc3)NC(=O)[C@H](C)NC(=O)[C@H](C)NC(=O)[C@H](CCC(=O)O)NC(=O)[C@H](CC(=O)O)NC1=O)NC(=O)[C@H](CC(C)C)NC(=O)[C@H](CC(=O)O)NC2=O (stereo partly shown) [I-752] : 9.9 µM

Q: What does the data say about its IC50? Entry: CC(=O)N1CCC[C@]12CC=CCCCC1(CCCC=CCCCOC(=O)N3CC[C@@](C(=O)N[C@@H](Cc4ccsc4)C(=O)N[C@@H](Cc4csc5ccccc45)C(=O)N[C@@H](Cc4c[nH]cn4)C(N)=O)(C3)NC(=O)[C@H](CC(N)=O)NC(=O)[C@H](Cc3ccccc3)NC(=O)[C@H](C)NC(=O)[C@H](C)NC(=O)[C@H](CN(CC(=O)O)CC(F)(F)F)NC(=O)[C@H](CC(=O)O)NC1=O)NC(=O)[C@H](CC(C)(C)C)NC(=O)[C@H](CC(=O)O)NC2=O (stereo partly shown) [I-769]
A: 13 µM
